- systemName: Acetylcholinesterase (Electrophorus electricus)
- cond: at 2 mg/mL
- Description: Inhibition of electric eel AChE at 2 mg/ml by Ellman's method
The entries below come with measured inhibition values attached.
Could you give me the number in %? Just the number is fine.

Solved entries (count: 5):
CC1=C2C(=CO[C@H](C)[C@H]2C)C(O)=C(C(=O)O)C1=O    3.11
COc1cc2c(c(OC)c1OC)-c1ccc(OC)c(=O)cc1[C@@H](NC=O)CC2    23.9
CC1(C)CC[C@]2(C(=O)O)CC[C@]3(C)C(=CC[C@@H]4[C@@]5(C)CC[C@H](O)C(C)(C)[C@@H]5CC[C@]43C)[C@@H]2C1    10.2
C[C@H]1O[C@@H](O[C@H]2[C@@H](O)C[C@H](O[C@H]3[C@@H](O)C[C@H](O[C@H]4CC[C@@]5(C)[C@H](CC[C@@H]6[C@@H]5CC[C@]5(C)[C@@H](C7=CC(=O)OC7)CC[C@]65O)C4)O[C@@H]3C)O[C@@H]2C)C[C@H](O)[C@@H]1O    -1.83
CC(C)C[C@H](NC(=O)[C@H]1O[C@@H]1C(=O)O)C(=O)NCCCCN=C(N)N    -7.43

Input line: Quick one: inhibition of CC[C@]1(O)C[C@@H]2CN(CCc3c([nH]c4ccccc34)[C@@](C(=O)OC)(c3cc4c(cc3OC)N(C)[C@H]3[C@@](O)(C(=O)OC)[C@H](OC(C)=O)[C@]5(CC)C=CCN6CC[C@]43[C@@H]65)C2)C1 ?
Output line: 15.4

====

- systemName: Cholinesterase (Homo sapiens, UniProt P06276)
- Sequence (P06276 whole entry): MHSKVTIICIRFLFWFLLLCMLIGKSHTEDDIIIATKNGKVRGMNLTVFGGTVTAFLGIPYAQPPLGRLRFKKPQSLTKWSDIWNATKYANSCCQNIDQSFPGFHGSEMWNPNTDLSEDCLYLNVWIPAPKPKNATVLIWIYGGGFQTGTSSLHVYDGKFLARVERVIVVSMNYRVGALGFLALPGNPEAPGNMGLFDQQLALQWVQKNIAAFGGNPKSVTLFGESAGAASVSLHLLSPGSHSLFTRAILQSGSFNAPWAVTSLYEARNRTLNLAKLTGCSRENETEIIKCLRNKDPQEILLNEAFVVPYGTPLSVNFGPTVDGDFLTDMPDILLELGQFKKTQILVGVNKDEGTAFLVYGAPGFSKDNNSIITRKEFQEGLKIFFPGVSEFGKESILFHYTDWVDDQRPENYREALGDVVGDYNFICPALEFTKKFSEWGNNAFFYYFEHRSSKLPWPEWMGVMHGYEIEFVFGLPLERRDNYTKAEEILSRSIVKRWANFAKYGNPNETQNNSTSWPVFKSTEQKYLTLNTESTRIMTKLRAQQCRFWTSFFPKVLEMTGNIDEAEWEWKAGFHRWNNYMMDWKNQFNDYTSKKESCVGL
- protocolSummary: Inhibition of human BChE by Ellman's method
- cond: read-out: IC50
endpointLabel: IC50 (µM)
Give the value in µM but do not write µM after it.

COc1cc2c3cc1Oc1c(OO)c(OC)cc4c1[C@H](Cc1ccc(cc1)Oc1cc(ccc1O)C[C@H]3N(C)CC2)N(C)CC4.O=S(=O)(O)O [OXYACANTHINE SULFATE]    1.89
Cc1c([C@H](C)[C@@H]2NC[C@@H](C)C[C@H]2O)ccc2c1C[C@H]1[C@H]2CC=C2C[C@@H](O)CC[C@@]21C    19.5
CCC1=C[C@@H]2CN3CCc4c([nH]c5ccccc45)[C@@](C(=O)OC)(C2)[C@@H]13    3.17

Pending molecule:
Input line: For the molecule shown here, COc1cc2c3cc1Oc1c(OC)c(OC)cc4c1[C@@H](Cc1ccc(OC(=O)c5ccc([N+](=O)[O-])cc5)c(c1)Oc1ccc(cc1)C[C@@H]3N(C)CC2)N(C)CC4 , give the reported IC50.
Output line: 2.14

====

- systemName: Acetylcholinesterase (Homo sapiens, UniProt P22303)
- Sequence (P22303 whole entry): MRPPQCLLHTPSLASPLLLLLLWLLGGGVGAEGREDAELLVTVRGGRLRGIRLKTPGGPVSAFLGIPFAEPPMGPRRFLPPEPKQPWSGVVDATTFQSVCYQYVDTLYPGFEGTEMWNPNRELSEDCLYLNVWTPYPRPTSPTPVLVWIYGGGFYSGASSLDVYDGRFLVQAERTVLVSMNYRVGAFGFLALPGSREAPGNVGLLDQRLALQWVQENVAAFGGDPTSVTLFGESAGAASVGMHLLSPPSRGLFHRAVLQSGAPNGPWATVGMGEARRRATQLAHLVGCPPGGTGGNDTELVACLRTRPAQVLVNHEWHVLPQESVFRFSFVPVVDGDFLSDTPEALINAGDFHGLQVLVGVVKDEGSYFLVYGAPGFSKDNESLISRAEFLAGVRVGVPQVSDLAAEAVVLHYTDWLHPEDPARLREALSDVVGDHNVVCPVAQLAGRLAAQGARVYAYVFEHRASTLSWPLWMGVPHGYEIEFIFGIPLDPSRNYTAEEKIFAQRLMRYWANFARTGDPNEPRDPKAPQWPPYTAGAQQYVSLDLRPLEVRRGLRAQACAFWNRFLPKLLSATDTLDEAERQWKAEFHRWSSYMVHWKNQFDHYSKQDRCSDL
- protocolSummary: Uncompetitive inhibition of human AChE using acetyl thiocholine iodide as substrate by Lineweaver-Burk double-reciprocal analysis
endpointLabel: Ki
Hey, just the number and the unit after it is fine.

Input line: What does the data say about its Ki? Entry: COc1ccc2c(c[n+](C)c3c4cc5c(cc4ccc23)OCO5)c1OC [CHELERYTHRINE CHLORIDE]
Output line: 1120 nM

====

- systemName: UniProt:P81908
- Sequence (P81908 whole entry): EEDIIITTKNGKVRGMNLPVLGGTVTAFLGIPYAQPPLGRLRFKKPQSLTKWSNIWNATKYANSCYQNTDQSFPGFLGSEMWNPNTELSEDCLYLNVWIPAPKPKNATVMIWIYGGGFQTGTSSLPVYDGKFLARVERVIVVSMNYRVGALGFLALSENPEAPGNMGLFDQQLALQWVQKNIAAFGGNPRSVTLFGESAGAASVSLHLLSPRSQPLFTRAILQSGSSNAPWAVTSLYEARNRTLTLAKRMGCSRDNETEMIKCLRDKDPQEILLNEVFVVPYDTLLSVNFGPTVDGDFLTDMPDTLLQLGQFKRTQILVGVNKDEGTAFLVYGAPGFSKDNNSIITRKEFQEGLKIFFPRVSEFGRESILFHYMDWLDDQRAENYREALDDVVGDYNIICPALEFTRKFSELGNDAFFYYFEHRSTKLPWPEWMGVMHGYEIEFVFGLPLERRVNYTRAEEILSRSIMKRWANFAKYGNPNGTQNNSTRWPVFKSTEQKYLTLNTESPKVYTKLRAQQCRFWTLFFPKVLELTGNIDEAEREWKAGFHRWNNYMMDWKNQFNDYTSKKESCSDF
- cond: at 2 mg/mL
- Description: Inhibition of horse BChE at 2 mg/ml by Ellman's method
endpointLabel: inhibition (%)
Please reply with the bare figure in % and do not write the unit itself.

Take a look at these entries with their results.
C[C@@H]1C[C@H]2O[C@@H]2/C=C\C=C\C(=O)Cc2c(Cl)c(O)cc(O)c2C(=O)O1    -1.22
O=[N+]([O-])c1ncc[nH]1    14.4
CO[C@H]1C[C@@H]2CC[C@@H](C)[C@@](O)(O2)C(=O)C(=O)N2CCCC[C@H]2C(=O)O[C@H]([C@H](C)C[C@@H]2CC[C@@H](O)[C@H](OC)C2)CC(=O)[C@H](C)/C=C(\C)[C@@H](O)[C@@H](OC)C(=O)[C@H](C)C[C@H](C)/C=C/C=C/C=C/1C    4.03

Input line: # query: inhibition of entry CC[C@H](C)C(=O)O[C@H]1CCC=C2C=C[C@H](C)[C@H](CC[C@@H]3C[C@@H](O)CC(=O)O3)[C@H]21
Output line: 7.39

Input line: inhibition for NC[C@H]1O[C@H](O[C@H]2[C@H](O)[C@@H](O[C@H]3O[C@H](CO)[C@@H](O)[C@H](N)[C@H]3O)[C@H](N)C[C@@H]2N)[C@H](O)[C@@H](O)[C@@H]1O ?
Output line: -5.91

Input line: Endpoint output: inhibition of C[C@@H]1C(=O)O[C@H]2[C@H](O)[C@@]34[C@H]5C[C@@H](C(C)(C)C)[C@]36[C@@H](OC(=O)[C@@H]6O)O[C@@]4(C(=O)O5)[C@@]12O . Value?
Output line: 9.99

Input line: Recorded inhibition for CC[C@@]1([C@@H]2O[C@@H]([C@H]3O[C@@](O)(CO)[C@H](C)C[C@@H]3C)C[C@@H]2C)CC[C@H]([C@]2(C)CC[C@]3(C[C@H](O)[C@@H](C)[C@@H]([C@@H](C)[C@@H](OC)[C@H](C)C(=O)O)O3)O2)O1 , please?
Output line: 2.48

Input line: Which inhibition is reported for this compound? CCCCCCCCCCC[C@@H](C[C@@H]1OC(=O)[C@H]1CCCCCC)OC(=O)[C@H](CC(C)C)NC=O
Output line: 7.43

Input line: Query (compound): CC(=O)C1=C(O)[C@@H]2[C@H]3c4c[nH]c5cccc(c45)C[C@H]3C(C)(C)N2C1=O ; field requested: inhibition
Output line: 6.85

Input line: Which measured inhibition value corresponds to CC1(C)[C@@H](O)CC[C@]2(C)[C@H]3C(=O)C=C4[C@@H]5C[C@@](C)(C(=O)O)CC[C@]5(C)CC[C@@]4(C)[C@]3(C)CC[C@@H]12 ?
Output line: 4.46

====

Each entry below carries its reported inhibition.
- systemName: Acetylcholinesterase (Electrophorus electricus)
- cond: at 2 mg/mL
Note: unit % is implicit; provide only the numeric part.

COC1=C(C(C)=O)C2=C(C)Cc3c(OC)c(=O)c(O)c4cc(OC)c5c(OC)cc(O)c6c(c2c3c4c56)C1=O    4.6
C[C@@H]1O[C@@H](O[C@H]2C(Oc3cc(O)c4c(=O)c(O)c(-c5ccc(O)cc5)oc4c3)O[C@H](CO)[C@@H](O)[C@@H]2O)[C@H](O)[C@H](O)[C@H]1O (stereo partly drawn)    24.5
C/C=C1\[C@H]2C=C(C)C[C@]1(N)c1ccc(=O)[nH]c1C2    97.3
O=c1cc(-c2ccc(O)cc2)oc2c([C@@H]3O[C@H](CO)[C@@H](O)[C@H](O)[C@H]3O)c(O)cc(O)c12    3.3
COc1cc(-c2oc3cc(O)ccc3c(=O)c2O)ccc1O    3.26

Input line: Short answer please: inhibition, Acetylcholinesterase (Electrophorus electricus), entry CC1=C[C@]23C(=O)[C@@H](C=C(COC(=O)c4ccccc4)[C@@H](O)[C@]2(O)[C@H]1OC(=O)c1ccccc1)[C@H]1[C@@H](C[C@H]3C)C1(C)C
Output line: -0.16

Input line: Param readout= inhibition; system= Acetylcholinesterase (Electrophorus electricus); entry= C=C[C@@](C)(/C=C/c1ccc(O)cc1)CCC=C(C)C ; returns value.
Output line: -7.92

Input line: Look up inhibition with Acetylcholinesterase (Electrophorus electricus) for this compound: C[C@H]1CC[C@@H]2[C@@H](C)[C@H]3[C@H](C[C@H]4[C@@H]5CC[C@H]6C[C@@H](O)CC[C@]6(C)[C@H]5CC[C@]34C)N2C1
Output line: 5.43

Input line: Request body: readout inhibition, system Acetylcholinesterase (Electrophorus electricus), query COC1=CC(=O)O[C@@H](CCc2ccc3c(c2)OCO3)C1 . Return the value.
Output line: 24.8

Input line: Given the entry C[C@@H]1CC[C@H]2[C@@H](C)C(=O)O[C@@H]3O[C@@]4(C)CC[C@@H]1[C@]32OO4 , what inhibition was observed with Acetylcholinesterase (Electrophorus electricus)?
Output line: 2.43

Input line: What reported inhibition corresponds to C=C1C(=O)O[C@@H]2C3O[C@]3(C)CC/C=C(\C)CC[C@@H]12 (stereo partly drawn) on Acetylcholinesterase (Electrophorus electricus)?
Output line: -5.29

Input line: Please state recorded inhibition (tested on Acetylcholinesterase (Electrophorus electricus)) of C[C@@]12C=Cc3occc3[C@H]1CC[C@]13CC(=O)[C@H](CC[C@H]12)C3
Output line: 8.34

Input line: Provide the documented inhibition with Acetylcholinesterase (Electrophorus electricus) as the system for C[C@@H]1NCCc2cc(O)c(O)cc21
Output line: 19.3

Input line: Can you look up inhibition on Acetylcholinesterase (Electrophorus electricus) for CC[C@]1(O)C[C@H]2CN(CCc3c([nH]c4ccccc34)[C@@](C(=O)OC)(c3cc4c(cc3OC)N(C=O)[C@H]3[C@@](O)(C(=O)OC)[C@H](OC(C)=O)[C@]5(CC)C=CCN6CC[C@]43[C@@H]65)C2)C1 ?
Output line: 10.9

Input line: Request: inhibition, test system Acetylcholinesterase (Electrophorus electricus), entry O=c1cc(-c2ccc(O)cc2)oc2cc(OC3O[C@H](CO)[C@@H](O)[C@H](O)[C@H]3O)cc(O)c12 (stereo partly drawn)
Output line: 24.9

Input line: Form: Entry = CC[C@@H](CO)NC(=O)[C@@H]1C=C2c3cccc4[nH]cc(c34)C[C@H]2N(C)C1 | System = Acetylcholinesterase (Electrophorus electricus) | inhibition = ____
Output line: 6.45

Input line: Kindly state the measured inhibition obtained for COc1ccc2c(c1OC)C(=O)OC2C1c2c(cc3c(c2OC)OCO3)CCN1C (racemic) with Acetylcholinesterase (Electrophorus electricus).
Output line: -5.54
